This collection of values is drawn from the RNAGym collection of RNA variant scans (doi:10.7554/elife.90254).

Kindly supply the reported self-cleavage values for the records listed here.
B1: LINE1-full (parent)
chain: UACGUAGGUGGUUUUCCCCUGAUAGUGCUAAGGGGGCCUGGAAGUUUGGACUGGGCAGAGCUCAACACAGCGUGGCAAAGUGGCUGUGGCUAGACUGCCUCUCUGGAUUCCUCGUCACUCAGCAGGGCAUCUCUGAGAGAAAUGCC

# Variants of: B1
# Protocol Details: self-cleavage, relative activity (ratio to wild type); higher = more cleavage; in vitro, sequencing; the parent is a self-cleaving ribozyme
Give your answer as a number; write no unit.

The recorded self-cleavage for UACGUAGGUGGUUUUCCCCUGAUAGUGCUAAGGGGGCCUGGAAGCUUGGACUGGGCAGAGCUCAACACAGCGUGGCAAAGUGGCUGUGGUUAGACUGCCUCUCUGGAUUCCUCGUCACUCAGCAGGGCAUCUCUGAGAGAAAUGCC [U45C C90U] is 0.08

The recorded self-cleavage for UACGUAGGUGGUUUUCCCCUGAUUGUGCUAAGGGGGCCUGGAAGUCUGGACUGGGCAGAGCUCAACACAGCGUGGCAAAGUGGCUGUGGCUAGACUGCCUCUCUGGAUUCCUCGUCACUCAGCAGGGCAUCUCUGAGAGAAAUGCC [A24U U46C] is 1.54

The recorded self-cleavage for UACGUAGGUGGUUUUCCCCUGAUAGUGCUUAGGGGGCCUGGAAGUUUGGACUGGGCAGAGCUCAACACAGCGUGGCAAAGUGGCUGUGGCUAGACUGCCUCUCUGGAUUCCUCGUCACUCAGCAGGGCAUCACUGAGAGAAAUGCC [A30U U132A] is 1.22

The recorded self-cleavage for UACAUAGGUGGUUUUCCCUUGAUAGUGCUAAGGGGGCCUGGAAGUUUGGACUGGGCAGAGCUCAACACAGCGUGGCAAAGUGGCUGUGGCUAGACUGCCUCUCUGGAUUCCUCGUCACUCAGCAGGGCAUCUCUGAGAGAAAUGCC [G4A C19U] is 0.59

The recorded self-cleavage for UACGUAGGUGGUUUUCCCCUGAUAGUGCUAAGGGGGCCUGGAAGUUUGGACUGGGCAGAGCUCAACACAGCGUGGCAAAGUGGCUGUGGCUAGACUGCCUCUCUGGAUUCCACGUCACUCAGCAGGGCAUCUCUGAGAGAGAUGCC [U112A A141G] is 1.43

The recorded self-cleavage for UACGUAGGUGGUUUUCCCCAGAUAGUGCUAAGGGGGCUUGGAAGUUUGGACUGGGCAGAGCUCAACACAGCGUGGCAAAGUGGCUGUGGCUAGACUGCCUCUCUGGAUUCCUCGUCACUCAGCAGGGCAUCUCUGAGAGAAAUGCC [U20A C38U] is 0.87

The recorded self-cleavage for UACGUAGUUGGUUUUCCCCUGAUAGUGCUAAGGGGGCCUGGAAGUUUGGACUGGGCAGAGCACAACACAGCGUGGCAAAGUGGCUGUGGCUAGACUGCCUCUCUGGAUUCCUCGUCACUCAGCAGGGCAUCUCUGAGAGAAAUGCC [G8U U62A] is 0.12

The recorded self-cleavage for UACGUAGGUGGUUUUCCCCUGGUAGUGCUAAGGGGGCCUGGAAGUUUGGACUGGGCAGAGCUCAACACAGCGUGGCAAAGUGGCUGUGGCUAGACUGCCUCUCUGGAUUCCACGUCACUCAGCAGGGCAUCUCUGAGAGAAAUGCC [A22G U112A] is 1.84

The recorded self-cleavage for UACGUAGGUGGUUUUCCCCUGAUAGUGCUAAGGGGGCCCGAAAGUUUGGACUGGGCAGAGCUCAACACAGCGUGGCAAAGUGGCUGUGGCUAGACUGCCUCUCUGGAUUCCUCGUCACUCAGCAGGGCAUCUCUGAGAGAAAUGCC [U39C G41A] is 1.41

The recorded self-cleavage for UACGUAGGUGGUUUUCCCCUGAUAGUGCUAAGGGGGCCUGGAAGUUUGGACUGGGCAGAGCUCAACACAGCGUGGCAAAGUGGCUGUGGCUAGACUGCCUCACUGGAUUCCUCGUCACUCAGCAGGGCACCUCUGAGAGAAAUGCC [U102A U130C] is 1.89

The recorded self-cleavage for UACGUAGGUGGUUUUCCCCUGAUAGUGCUAUGGGGGCCUGGAAGUUUGGACUGGGCAGAGCUCAACACAGCGUGGCAAAGUGGCUGUGGCUAGACUGCCUCUCUGGAUUCCUCGUCACUCAGCAGGGCAUCUCUGAGAGAAAUGCC [A31U] is 1.03

The recorded self-cleavage for UACGUAGGUGGUUUUCCCCUGAUAGUGCUAAGGGGGCCUGGAAGUUUGGACUGGGCAGAGCCCAACACAGCGUGGCAAAGUGGCUGUGGCUAGACUGCCUCUCUGGAUUCCUCGUCACUCAGCAGAGCAUCUCUGAGAGAAAUGCC [U62C G126A] is 0.04

The recorded self-cleavage for UACGUAGGUGGUUUUCCCCUGAUAGUGCUAAGGGGGCCUGGAAGUUUGGACUGGGCAGAGCUCAACACAGCGUGGCAAAGUGGCUGUGGCUAGGCUGCCUCUCUGGAUUCCUCGUCGCUCAGCAGGGCAUCUCUGAGAGAAAUGCC [A94G A117G] is 0.36

The recorded self-cleavage for UACGUAGGUGGUUUUCCCCUGAUAGUGCUAAGGGGGCCUGGAAGUUUGGACUGGGCAGAGCUCAACACAGCGUGGCAAAGUGGCCGUGGCUAGACUGCCUCUCUGGAUUCCUCGUCACUCAGCAUGGCAUCUCUGAGAGAAAUGCC [U85C G125U] is 0.11

The recorded self-cleavage for UACGUAGGUGGUUUUCCCCUGAUAGUGUUAAGGGGGCCUGGAAGUUUGGACUGGGCAGAGCUCAACACAGCGUGGCAAAGUGGCUGUGGCUAGACUGCCUCUCUGGAUUCCUCGUCACUCAGCAGGGCAUCUCUGAGGGAAAUGCC [C28U A138G] is 1.01

The recorded self-cleavage for UACGUAGGUGGUUUUCCCCUGAUAGUGCUAAGGGGGCCUGGAAGUUUGGACUGGGCAGAGCUCAACACAGCGUGGCAAAGCGGCUGUGGCUAGACUGCCUCUCUGGAUUCCUCGCCACUCAGCAGGGCAUCUCUGAGAGAAAUGCC [U81C U115C] is 1.39

The recorded self-cleavage for UACGUAGGUGGUUUUCCCCUGAUAGUGCUAAGGGGGCCUGGAAGUUUGGACUGGGCAGAGCUCAACACAGCGUGGCAAAGUGGCUGGGGCUAGACUGCCUCUCUGGAUUCCUCGUCACUCAGCUGGGCAUCUCUGAGAGAAAUGCC [U87G A124U] is 0.17

The recorded self-cleavage for UACGUAGGUGGUUUUCCCCUGAUAGUGCUAAGGGGGCCUGGAAGUUUGGACAGGGCAGAGCACAACACAGCGUGGCAAAGUGGCUGUGGCUAGACUGCCUCUCUGGAUUCCUCGUCACUCAGCAGGGCAUCUCUGAGAGAAAUGCC [U52A U62A] is 0.05

The recorded self-cleavage for UACGUAGGCGGUUUUCCCCUGAUAGUGCUAAGGCGGCCUGGAAGUUUGGACUGGGCAGAGCUCAACACAGCGUGGCAAAGUGGCUGUGGCUAGACUGCCUCUCUGGAUUCCUCGUCACUCAGCAGGGCAUCUCUGAGAGAAAUGCC [U9C G34C] is 0.8

The recorded self-cleavage for UACGUAGGCGGUUUUCCCCUGAUAGUGCUAAGGGGGCCUGGAAGUUUGGACUGGGCAGAGCUCAACACAGCGUGGCAAAGUGGAUGUGGCUAGACUGCCUCUCUGGAUUCCUCGUCACUCAGCAGGGCAUCUCUGAGAGAAAUGCC [U9C C84A] is 0.26

The recorded self-cleavage for UACGUAGGUGGUUUUCCCCUGAUAGUGCUAAGGGGGCCUGGAAGUUUGGACAGGGCAGAGCUCGACACAGCGUGGCAAAGUGGCUGUGGCUAGACUGCCUCUCUGGAUUCCUCGUCACUCAGCAGGGCAUCUCUGAGAGAAAUGCC [U52A A64G] is 0.31

The recorded self-cleavage for UACGUAGGUGGUUUUCCCCAGAUAGUGCUAAGGGGGCCUGGAAGUUUGGACUGGGCAGAGCUCAACACAGCGUGGCAAAGUGGCUGCGGCUAGACUGCCUCUCUGGAUUCCUCGUCACUCAGCAGGGCAUCUCUGAGAGAAAUGCC [U20A U87C] is 0.31

The recorded self-cleavage for UACGUAGGUGGUUUUCCCCUGAUAGUGCUAAGGGGGCCUGGAAGUUUGGACUGGGCAGAGCUCUACACAGCGUAGCAAAGUGGCUGUGGCUAGACUGCCUCUCUGGAUUCCUCGUCACUCAGCAGGGCAUCUCUGAGAGAAAUGCC [A64U G74A] is 0.3

The recorded self-cleavage for UACGUAGGUGGUUUUCCCCUGAUAGUGCUAAGGGGGCCUGGAAGUUUGGACUGGACAGAGCUCAACACAGCGUGGCAAAGUGGCUGUGGCUAGAUUGCCUCUCUGGAUUCCUCGUCACUCAGCAGGGCAUCUCUGAGAGAAAUGCC [G55A C95U] is 0.11

The recorded self-cleavage for UACGUAGGUGGUUUUCCCCUGAUAGUGCUAAGGGGGCCUGGAAGUUUGGACUGGGCAGAGCUCAACACAGCGUGGCAAAGUGGCAGAGGCUAGACUGCCUCUCUGGAUUCCUCGUCACUCAGCAGGGCAUCUCUGAGAGAAAUGCC [U85A U87A] is 0.07

The recorded self-cleavage for UACGUAGGUGGUUUUCCCCUGAUAGUGCUAAGGGGGCCUGGAAGUUUGGACUGGGCAGAGCUCAACUCAGCGUGGCGAAGUGGCUGUGGCUAGACUGCCUCUCUGGAUUCCUCGUCACUCAGCAGGGCAUCUCUGAGAGAAAUGCC [A67U A77G] is 0.17

The recorded self-cleavage for UACGUAGGUGGUUUUCCCCUGAUAGUGCUAAGGGGGCCCGGAAGUUUGGACUGGGCAGAGCUCAACACAGCGUGGCAAAGUGGCUGUGGCUAGACUGCCUCUCUGGAUUCCUCGUCACUCAGCAGGGCAUCUCUGAGAGAAAUACC [U39C G144A] is 0.85

The recorded self-cleavage for UACGUAGGUGGUUUUCCCCUGAUAGUGCUAAGGGGGCUUGGAAGUUUGGACAGGGCAGAGCUCAACACAGCGUGGCAAAGUGGCUGUGGCUAGACUGCCUCUCUGGAUUCCUCGUCACUCAGCAGGGCAUCUCUGAGAGAAAUGCC [C38U U52A] is 1.25

The recorded self-cleavage for UACGUAGGUGGUUUCCCCCUGAUAGUGCUAAGGGGGCCUGGAAGUUUGGACUGGGCAGAGCUCAUCACAGCGUGGCAAAGUGGCUGUGGCUAGACUGCCUCUCUGGAUUCCUCGUCACUCAGCAGGGCAUCUCUGAGAGAAAUGCC [U15C A65U] is 0.2

The recorded self-cleavage for UACGUAGGUGGUUUUCCCCUGAUAGUGCUAAGGGGGCCUGGAAGUUUGGACUGGGCAGUACUCAACACAGCGUGGCAAAGUGGCUGUGGCUAGACUGCCUCUCUGGAUUCCUCGUCACUCAGCAGGGCAUCUCUGAGAGAAAUGCC [A59U G60A] is 0.05

The recorded self-cleavage for UACGUAGGUGGUUUUCCCCUGAUAGUGCUGAGGGGGCCUGGAAGUUUGGACUGGGCAGAGCUCAACACAGCGUGGCAAAGUGGCUGUGGCUAGACUGCCUCUCUGGAUCCCUCGUCACUCAGCAGGGCAUCUCUGAGAGAAAUGCC [A30G U109C] is 1.71

The recorded self-cleavage for UACGUAGGUGGUUUUCCCCUGAUGGUGCUAAGGGGGCCUGGAAGUUUGGACUGGGCAGAGCUCAACACAGCGUGGCAAAGUGGCUAUGGCUAGACUGCCUCUCUGGAUUCCUCGUCACUCAGCAGGGCAUCUCUGAGAGAAAUGCC [A24G G86A] is 0.12

The recorded self-cleavage for UACGUAGGUGGUUUUCCCCUGAUAGGGCUAAGGGGGCCUGGAAGUUUGGACUGGGCAGAGCUCAACACAGCGUGGCAAAGUGGCUGUGGCUAGACUGCCUCUCCGGAUUCCUCGUCACUCAGCAGGGCAUCUCUGAGAGAAAUGCC [U26G U104C] is 0.81

The recorded self-cleavage for UACGUAGGUGGUUUUCCCCUGAUAGUGCUAAGGGGGCCUGGAAGUUUGAACUGGGCAGAGCUCAACACAGCGUGGCAAAGUGGCUGUGGCUAGACUGCCUCUCUGGAUUCCUCGUCACUCAGCAGGGCAUCUCUGAGAGAAACGCC [G49A U143C] is 1.09

The recorded self-cleavage for UACGUAGGUGGUUUUCCCCUGAUAGUGCUAAGGGGGCCUGGAAGUUUGGACUGGGCAGAGCUCAACACAGCGCGGCAAAGUGGCUGUGGCUAGACUGCCUCUCUGGAUUCCUCGUCACUCAGCAGGGCAUCUCUGAGAGAAAUACC [U73C G144A] is 1.77
